Catalogue of IC50 readings, one per entry.
system name: T1, human PTH-2 receptor (human, UniProt P49190 25-550)
T1 construct: whole, on cells; Transiently expressed on COS-7 cells
T1 sequence (P49190 25-550): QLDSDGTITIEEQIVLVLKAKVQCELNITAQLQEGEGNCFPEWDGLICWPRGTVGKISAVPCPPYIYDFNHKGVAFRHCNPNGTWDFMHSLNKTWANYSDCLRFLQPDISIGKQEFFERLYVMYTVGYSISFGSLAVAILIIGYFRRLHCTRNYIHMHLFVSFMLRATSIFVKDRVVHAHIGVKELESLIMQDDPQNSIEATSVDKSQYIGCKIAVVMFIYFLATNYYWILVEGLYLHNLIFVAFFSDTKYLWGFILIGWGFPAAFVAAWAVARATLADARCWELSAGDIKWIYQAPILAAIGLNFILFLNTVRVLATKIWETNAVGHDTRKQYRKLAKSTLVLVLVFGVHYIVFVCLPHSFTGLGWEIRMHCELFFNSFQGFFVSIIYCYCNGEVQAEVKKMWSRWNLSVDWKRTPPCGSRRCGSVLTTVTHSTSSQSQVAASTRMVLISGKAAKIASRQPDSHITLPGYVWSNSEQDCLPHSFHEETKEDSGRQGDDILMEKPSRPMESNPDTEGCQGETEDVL
assay name: radioligand competition (tracer 125I-[Nle8,21,Tyr34]rPTH-(1-34)NH2) on transfected COS-7 cells, RT 2 h
Where no end group is shown, it is not given here.

binder	IC50
AVSEIQLLHDKGKSIQDLRRRFWLHHLIAEIHTAEY-NH2 (also called [Ile^5, Trp^23]PTHrP-(1-36); [Ile^5,Trp^32]PTHrP-(1-36) [sic]) [[I5, W23, Y36]hPTHrP-(1-36)NH2]	10 nM
AVSEHQLLHDKGKSIQDLERVEWLRKKLQDVHNY-NH2 (also: radioiodinated in direct binding test, Synthetic PTH/PTHrP hybrid ligand; also called radioiodinated hybrid-5 peptide) [Hybrid-5 hPTHrP-(1-18)/[Y34]hPTH-(19-34)NH2]	500 nM

Hey, just so you know, these numbers are from patent US6362163B1.
